B1: Hairpin Ribozyme (parent)
chain: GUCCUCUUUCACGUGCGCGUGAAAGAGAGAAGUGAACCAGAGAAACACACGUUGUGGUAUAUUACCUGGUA

- Variants of: B1
- test name: self-cleavage, relative activity (ratio to wild type); higher = more cleavage; co-transcriptional
observed property: self-cleavage
Give the figure by itself; no unit, no explanation.

I would be grateful if you could share the reported self-cleavage for GUCCUCUUUCACGUGCGCGUGAAAGAGAGAGGUGAACCAGAGAAACACACGUUGUGGUAUAUUACCUGGGA [A31G U70G] .
0.376

Entry GUCCUCUUUCACGUGCGAGUGAAAGAGAGAAGUGAACCAGAGAAACACACGUUGUGGCAUAUUACCUGGUA [C18A U58C] please
1.07

Entry GUGCUCUUUCACGUGCGCGUGAAAGAGAGAAGUGAACCAGAGAAACACACGUUGUGGUAUAUUACCUUGUA [C3G G68U] please
0.102

Entry GUCCUCUCUCACGUGCGCGUGAAAGAGAGAAGUGAACCAGAGAAACACACGUUGUGGUACAUUACCUGGUA [U8C U60C] please
1.23

Entry GUCCACUUUCACGUGCGCGUGAAAGAGGGAAGUGAACCAGAGAAACACACGUUGUGGUAUAUUACCUGGUA [U5A A28G] please
0.471

Entry GUCCUCUUUCACGUGCGCGUGAAAGAGAGAAGUGAACCAGCGAAACACACGUUGUGGUAUAUUACGUGGUA [A41C C66G] please
0.292

Entry GUCCUCUUUCACGUGCGCGUGAAAGAGAGAAGUGAACCAGAGAAACAGACGUUGUGGUAUAUUGCCUGGUA [C48G A64G] please
0.155

Entry GUCUUCUCUCACGUGCGCGUGAAAGAGAGAAGUGAACCAGAGAAACACACGUUGUGGUAUAUUACCUGGUA [C4U U8C] please
0.241

Entry GUCCUCUUUCACGUGCGCGUGAAAGAGAGCAUUGAACCAGAGAAACACACGUUGUGGUAUAUUACCUGGUA [A30C G32U] please
0.188

Entry GACCUCUUUCACGUGCGCGUGAAAGAGAGAAGUGAACCAGAGAAACACACGUUGUGGUAAAUUACCUGGUA [U2A U60A] please
0.175

Entry GUCCUCUUUCACGUGCGCGUGAAAGACAGAAGUGAACCAGAGAAACACACGUUGUGGUAUAUUACCUGGUA [G27C] please
0.172

Entry GUCCUCUUUCACGUGCGCGAGAAAGAGAGAAGUGAACCAGAGAAACACACGUUGUGGUAUAUUACCUGGUC [U20A A71C] please
1.15

Entry CUCCUCUUUCACGUGCGCGUGAAAGAGAGAAGUGAACCAGAGAAACACACGUUGUGGUACAUUACCUGGUA [G1C U60C] please
0.314

Entry GUCCUCUUUCACGUGCGCGUGAAAGAGAGAAGUGAACCAUAGAAACACACGUUGUGGUAUAUUACCUCGUA [G40U G68C] please
0.163

Entry GUCCUCUUUCACGUGCGCGUGGAAGAGAGAAGUGAACCAGAGAUACACACGUUGUGGUAUAUUACCUGGUA [A22G A44U] please
0.123

Entry GUCCUCUUUCACGUGCGCAUGAAAGAGAGAAGUGACCCAGAGAAACACACGUUGUGGUAUAUUACCUGGUA [G19A A36C] please
0.511

Entry GUCCUCUUUCACGUGCGCGUGAAAGAGAGAAGUGAACCAAAGAAACACACGUUGUGGUAAAUUACCUGGUA [G40A U60A] please
0.271

Entry GUCCUCUUUCACGUGCGCGUGAAAGAGAGAAGUGAACGAGAGAAACACACGUUGUGGUAUAUUUCCUGGUA [C38G A64U] please
0.112

Entry GUCCUCUUUCACGUUCGCGUGACAGAGAGAAGUGAACCAGAGAAACACACGUUGUGGUAUAUUACCUGGUA [G15U A23C] please
1.14

Entry GUCCUCUUUCACGUGCGCGUGAAAGAGAGAAGUGAACCAGAGAAACACAUGUUGUGGUAUAUUACCUGCUA [C50U G69C] please
0.142

Entry GUCCUCUUUUACGUGCGCGUGAAAGAGAGAAGUGAACCAGAGUAACACACGUUGUGGUAUAUUACCUGGUA [C10U A43U] please
0.0631

Entry GUCCUCUUUCACGUGCGCGUGAAAGAGAGAAGUGAACCAGAGAAACACACUUUGUGGUAUAUUACCUGGUG [G51U A71G] please
1.24
